Sourced from PubChem BioAssay (Tox21)

biological target: Cytochrome P450 2D6 (Homo sapiens); test: Cytochrome P450 Family 2 Subfamily D Member 6 (CYP2D6) small molecule antagonists: luciferase reporter qHTS assay (AID 1671196); conditions: P450-Glo CYP2D6 enzyme assay, luciferin luminescence, 1 h; series mostly up to 115 µM; further: nearly all actives have a fitted effect of over 50% in size
Inconclusive results are not listed. Activity calls are given as the source filed them. The call rests on the fitted dose curve; in most records, active means well fitted inhibition curve with a large enough effect in the repeat runs; inconclusive means weak or mixed curves; inactive means no such curve, though single readings can be large or run the other way.
I would appreciate it if you answered using one of these outcomes: active, inactive

{"compound": "N#CCCN(CCO)CCO", "answer.label": "inactive"}
{"compound": "CC1(C)[C@H](C(=O)O)N2C(=O)C[C@H]2S1(=O)=O", "answer.label": "inactive"}

Query block: Call for entry CCCCCCCCC(CCCCCC)C(=O)O (stereo not given) :
Result block: inactive

Query block: Call for entry CCCCCCCCCCC(=O)O :
Result block: inactive

* * *

test: Human pregnane X receptor (PXR) small molecule agonists, qHTS cell viability counter screen (AID 1346977); conditions: PXR-Luc HepG2 viability, CellTiter-Fluor, 24 h; series mostly up to 92.4 µM; further: nearly all actives have a fitted effect of over 50% in size; further: potency means the concentration at half of the fitted maximal effect
Records with an inconclusive call do not appear. Active and inactive are the calls of the source. Calls follow the shape of the dose curve; as a rule, active = well fitted cell-killing curve with a large enough effect in the repeat runs; inconclusive = weak or mixed curves, or effect the other way; inactive = flat fitted curve, though single readings scatter.
metric.name: Potency

Below: 8 molecules and their reported Potency.
{"molecule": "CCC=CC#N", "metric.name": "Potency", "measurement": "inactive"}
{"molecule": "CC1(C)S[C@@H]2[C@H](NC(=O)C(c3ccccc3)S(=O)(=O)O)C(=O)N2[C@H]1C(=O)O (some centres not stated)", "metric.name": "Potency", "measurement": "inactive"}
{"molecule": "CC(=O)OCC[N+](C)(C)C", "metric.name": "Potency", "measurement": "inactive"}
{"molecule": "Cc1[nH]cnc1CN1CCc2c(c3ccccc3n2C)C1=O", "metric.name": "Potency", "measurement": "inactive"}
{"molecule": "Oc1cc2c(cc1O)[C@H]1c3ccc(O)c(O)c3OC[C@@]1(O)C2", "metric.name": "Potency", "measurement": "27.6 µM (active)"}
{"molecule": "C1C[C@@H]2[C@H]3CC[C@H](C3)[C@@H]2C1", "metric.name": "Potency", "measurement": "inactive"}
{"molecule": "O=C(O)CCC(=O)C(=O)O", "metric.name": "Potency", "measurement": "inactive"}
{"molecule": "CCN(CC)CCNC(=O)COc1ccc(OC)cc1", "metric.name": "Potency", "measurement": "inactive"}

Query block: Param item = Cc1ccc(OC(=O)c2ccccc2O)cc1 ; retrieve measured Potency.
Result block: inactive

Query block: Param item = c1cc(N(CC2CO2)CC2CO2)ccc1Cc1ccc(N(CC2CO2)CC2CO2)cc1 (configuration not stated) ; retrieve measured Potency.
Result block: 54.5 µM (active)

Query block: Param item = CC(=O)[C@H]1[C@H](C#N)C[C@H]2[C@@H]3CC=C4C[C@@H](O)CC[C@]4(C)[C@H]3CC[C@@]21C ; retrieve measured Potency.
Result block: inactive

Query block: Param item = FC(F)(F)c1ccccc1Cl ; retrieve measured Potency.
Result block: inactive

Query block: Param item = Cc1cscn1 ; retrieve measured Potency.
Result block: inactive

Query block: Param item = CCOC(=O)[C@H](CCc1ccccc1)N[C@@H](C)C(=O)N(CC(=O)O)C1Cc2ccccc2C1 ; retrieve measured Potency.
Result block: inactive

Query block: Param item = C=COCC(C)C ; retrieve measured Potency.
Result block: inactive

Query block: Param item = O=c1[nH]ncc2ccccc12 ; retrieve measured Potency.
Result block: inactive

Query block: Param item = Cc1cc2c(OCC(CNC(C)(C)C)OC(=O)c3ccccc3)cccc2[nH]1 (configuration not stated) ; retrieve measured Potency.
Result block: inactive

Query block: Param item = O=C(O)CCCCCCCCCCCBr ; retrieve measured Potency.
Result block: inactive
